- test-summary: Half life in Sprague-Dawley rat at 10 mg/kg, po measured up to 24 hrs by LC-MS/MS analysis
- Format: ADME, organism-based
- measurement-setup: in vivo
measured-parameter: half-life (h)

> print(dat)
                            chemical.string  measured.parameter  unit.spec  observed
1  CC(=O)c1ccc(S(=O)(=O)c2c(C)c(C(=O)O)n(CCCOc3cc(C)c(Cl)c(C)c3)c2C)cc1           half-life          h       2.1

----------
- test-summary: Stability in rat liver microsomes assessed as parent compound remaining preincubated for 5 mins followed by NADPH addition and measured after 30 mins by LC-MS/MS analysis
- Format: ADME, Microsome
- measurement-setup: time 35 min, read-out: Stabilty
measured-parameter: remaining at 0.5 h (%)

> print(dat)
                            chemical.string  observed
1  CC(=O)c1ccc(S(=O)(=O)c2c(C)c(C(=O)O)n(CCCOc3cc(C)c(Cl)c(C)c3)c2C)cc1      58.1

----------
- tgt: Bcl-2-related protein A1 (Homo sapiens) (UniProt Q16548)
- Sequence (Q16548 whole entry, the tested form may be a part): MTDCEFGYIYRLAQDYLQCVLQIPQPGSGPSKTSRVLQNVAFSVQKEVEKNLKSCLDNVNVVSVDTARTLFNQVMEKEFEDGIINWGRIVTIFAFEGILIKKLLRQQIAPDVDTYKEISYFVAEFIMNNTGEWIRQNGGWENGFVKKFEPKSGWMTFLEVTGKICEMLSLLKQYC
- test-summary: Inhibition of FITC-labeled Bak BH3 peptide binding to GST-tagged BFL1 (1 to 151 residues) (unknown origin) expressed in Escherichia coli BL21 (DE3) at 10 uM incubated for 30 mins fluorescence polarization-based competitive binding assay relative to control
measured-parameter: inhibition (%)

> print(dat)
                            chemical.string                                       tgt  observed
1  Cc1cc(OCCCn2c(C)c(S(=O)(=O)c3ccc(Br)cc3)c(C)c2C(=O)O)cc(C)c1Cl  Bcl-2-related protein A1 (Homo sapiens) (UniProt Q16548)      4.14
2  CC(=O)c1ccc(S(=O)(=O)c2c(C)c(C(=O)O)n(CCCOc3cc(C)c(Cl)c(C)c3)c2C)cc1  Bcl-2-related protein A1 (Homo sapiens) (UniProt Q16548)      1.57
3  COc1ccc(S(=O)(=O)c2c(C)c(C(=O)O)n(CCCOc3cc(C)c(Cl)c(C)c3)c2C)cc1  Bcl-2-related protein A1 (Homo sapiens) (UniProt Q16548)      1.82
4  CCc1ccc(S(=O)(=O)c2c(C)c(C(=O)O)n(CCCOc3cc(C)c(Cl)c(C)c3)c2C)cc1  Bcl-2-related protein A1 (Homo sapiens) (UniProt Q16548)      8.77

----------
- test-summary: Clearance in Sprague-Dawley rat at 10 mg/kg, po measured up to 24 hrs by LC-MS/MS analysis
- Format: ADME, organism-based
- measurement-setup: in vivo
measured-parameter: CL/F (mL/min/kg)

> print(dat)
                            chemical.string  measured.parameter  unit.spec  observed
1  CC(=O)c1ccc(S(=O)(=O)c2c(C)c(C(=O)O)n(CCCOc3cc(C)c(Cl)c(C)c3)c2C)cc1                CL/F  mL/min/kg      36.8

----------
- test-summary: Stability of the compound in simulated intestinal fluid assessed as parent compound remaining measured after 6 hrs
- Type: ADME
- measurement-setup: read-out: Stabilty
measured-parameter: remaining at 6 h (%)

> print(dat)
                            chemical.string  observed
1  CC(=O)c1ccc(S(=O)(=O)c2c(C)c(C(=O)O)n(CCCOc3cc(C)c(Cl)c(C)c3)c2C)cc1      85.2
